Numbers sourced from patent US20230310428A1.

Kindly supply the reported pIC50 values for the records listed here.
- Assayed system: various mutants of kinase EGFR (BaF3 cell lines stably transfected with kinase) (Homo sapiens, UniProt P00533, L858R/T790M)
- Construct: expressed in transfected cells; host or cells: BaF3
- Sequence (P00533 25-1210 T790M/L858R): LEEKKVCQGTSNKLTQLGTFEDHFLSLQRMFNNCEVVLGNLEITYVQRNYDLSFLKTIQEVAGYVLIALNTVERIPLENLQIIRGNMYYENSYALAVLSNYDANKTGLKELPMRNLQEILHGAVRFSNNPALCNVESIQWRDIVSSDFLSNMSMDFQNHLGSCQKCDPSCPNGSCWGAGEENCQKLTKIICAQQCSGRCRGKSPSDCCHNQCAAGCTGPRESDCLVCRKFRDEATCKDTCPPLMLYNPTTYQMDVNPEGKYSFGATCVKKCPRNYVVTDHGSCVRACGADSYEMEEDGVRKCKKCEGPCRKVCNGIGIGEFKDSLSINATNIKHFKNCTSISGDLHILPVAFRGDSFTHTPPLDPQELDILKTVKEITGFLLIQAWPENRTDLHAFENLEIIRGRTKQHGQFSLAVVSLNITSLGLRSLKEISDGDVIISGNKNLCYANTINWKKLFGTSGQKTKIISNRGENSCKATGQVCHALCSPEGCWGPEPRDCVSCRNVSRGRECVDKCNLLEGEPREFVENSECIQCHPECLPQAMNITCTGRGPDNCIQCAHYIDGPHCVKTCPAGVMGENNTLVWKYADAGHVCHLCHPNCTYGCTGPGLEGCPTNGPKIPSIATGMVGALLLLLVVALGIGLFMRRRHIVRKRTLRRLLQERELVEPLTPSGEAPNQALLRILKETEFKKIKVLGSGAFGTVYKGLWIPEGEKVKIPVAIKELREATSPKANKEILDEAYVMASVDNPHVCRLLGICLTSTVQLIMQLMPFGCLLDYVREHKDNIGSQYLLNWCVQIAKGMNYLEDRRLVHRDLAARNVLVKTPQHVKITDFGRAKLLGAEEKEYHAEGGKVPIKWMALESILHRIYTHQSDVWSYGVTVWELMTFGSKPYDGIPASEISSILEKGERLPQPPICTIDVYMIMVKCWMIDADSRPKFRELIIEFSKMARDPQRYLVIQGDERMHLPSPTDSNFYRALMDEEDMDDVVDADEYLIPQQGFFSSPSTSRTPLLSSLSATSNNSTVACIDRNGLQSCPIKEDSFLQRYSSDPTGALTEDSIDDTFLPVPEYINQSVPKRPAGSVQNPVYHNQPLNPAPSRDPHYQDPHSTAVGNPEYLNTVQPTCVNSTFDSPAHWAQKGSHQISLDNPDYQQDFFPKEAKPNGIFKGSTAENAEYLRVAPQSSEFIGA
- Assay text: Growth inhibitory activity of compounds on BaF3 cell lines stably transfected with kinase (MTS, 48 h)
- Format: cell-based
- Condition info: BaF3 cell line stably transfected with EGFR L858R/T790M, read-out: L858R/ T790M growth inhibitory activity IC50
pIC50: −log10 of the molar value.

Entry `CCc1cc(Nc2ncc(CC)c(Nc3ccc4nccnc4c3N(C)S(C)(=O)=O)n2)c(OC)cc1N1CCC(N2CCN(C)CC2)CC1` : reported pIC50 = ? ≥ 7.30

Can you check `CCc1cc(Nc2ncc(C(C)C)c(Nc3ccc4nccnc4c3N(C)S(C)(=O)=O)n2)c(OC)nc1N1CCC(N2CCN(C)CC2)CC1` next? ≥ 7.30

Can you check `CCc1cc(Nc2nc(Nc3ccc4nccnc4c3N(C)S(C)(=O)=O)c3[nH]ccc3n2)c(OC)cc1N1CCN(C)CC1` next? 5.60 to 6.30

Can you check `COc1cc(N2CCC(N3CCN(C)CC3)CC2)c(CC2CC2)cc1Nc1nc(Nc2ccc3nccnc3c2N(C)S(C)(=O)=O)c2occc2n1` next? 6.30 to 7.30

Can you check `CCOc1cnc(Nc2cc(C)c(N3CCC(N4CCN(C)CC4)CC3)cc2OC)nc1Nc1ccc2nccnc2c1N(C)S(C)(=O)=O` next? 6.30 to 7.30

Can you check `CN1CCN(C2CCN(c3ccc(Nc4ncc(Br)c(Nc5ccc6nccnc6c5NS(C)(=O)=O)n4)c(F)c3F)CC2)CC1` next? ≥ 7.30

Can you check `CCn1cc(Nc2ncc(Br)c(Nc3ccc4nccnc4c3N(C)S(C)(=O)=O)n2)cn1` next? 6.30 to 7.30

Can you check `COc1ccc(N2CCC(O)CC2)cc1Nc1ncc(F)c(Nc2ccc3nccnc3c2N(C)S(=O)(=O)C2CC2)n1` next? 5.60 to 6.30

Can you check CCc1cc(Nc2ncc(OC)c(Nc3ccc4nccnc4c3N(C)S(C)(=O)=O)n2)c(OC)cc1N1CCC(N(C)C)C1 (stereo not shown) next? ≥ 7.30

Can you check `CCc1cc(Nc2ncc(C(C)C)c(Nc3ccc4nccnc4c3N(C)S(C)(=O)=O)n2)c(OC)cc1N1CCN(C)CC1` next? ≥ 7.30

Can you check `COc1cc(N2CCC(N3CCN(C)CC3)CC2)c(C)cc1Nc1ncc(Br)c(Nc2ccc3nccnc3c2NS(=O)(=O)C(C)C)n1` next? ≥ 7.30

Can you check `CCc1cc(Nc2nc(Nc3ccc4nccnc4c3N(C)S(C)(=O)=O)c3ccsc3n2)c(OC(F)(F)F)cc1N1CCC(N2CCN(C)CC2)CC1` next? 5.60 to 6.30

Can you check `CCc1cc(Nc2ncc(Br)c(Nc3ccc4nccnc4c3N(C3CC3)S(C)(=O)=O)n2)c(OC)cc1N1CCN(C)CC1` next? ≥ 7.30
